Assay: Evaluation of dissolution stability (content change on storage in dissolved state)
Type: physicochemical
Conditions: 1 mg/1 ml dissolved state, 40° C. and RH 75%, initial
Where no end group is shown, it is not given here. [ ]: non-standard residue; d: D form. Pro(4,4-F2) = O=C(O)[C@@H]1CC(F)(F)CN1; Hyp = O=C(O)[C@@H]1C[C@@H](O)CN1; Aib = CC(C)(N)C(=O)O
parameter: Initial content (%)
Numbers only; they are read as %.

Some solved entries appear below for comparison.
{"columns": ["substance", "parameter", "experimental_result"],
 "data": [
  ["4,4-difluoro-Pro-Gly-Gln-Asp-Gly-Leu ([Pro(4,4-F2)]GQDGL) [Example 48]", "Initial content (%)", 92.71],
  ["Hyp-Gly-Gln-Glu-Aib-Leu-Ala ([Hyp]GQE[Aib]LA) [Example 92]", "Initial content (%)", 96.92],
  ["Hyp-Gly-Gln-Asu-Gly-Leu (isopropyl ester) [Example 111]", "Initial content (%)", 97.48],
  ["Hyp-Gly-Gln-Asp-Val-Leu-Ala ([Hyp]GQDVLA) [Example 23]", "Initial content (%)", 96.40]
]}

// next entry
Input: I would be grateful if you could share the reported Initial content (%) for Hyp-Gly-Gln-Asp-Gly-D Leu ([Hyp]GQDG[dL]) [Example 62] .
Output: 97.24
